System: Vero E6
Test: cell viability relative to DMSO; higher = less toxic
Details: 72 h; 1000 nM
As shown below, each of these molecules has a reported cell viability value.

molecule: CN1CCN(c2c(F)cc3c(=O)c(C(=O)O)cn4c3c2SCC4)CC1 [rufloxacin]
result.units: %
cell viability: 101
--
molecule: c1cc2c(cc1[C@H]1OC[C@H]3[C@@H]1CO[C@@H]3c1ccc3c(c1)OCO3)OCO2 [sesamin]
result.units: %
cell viability: 99.3
--
molecule: CC1(C)OC(=O)C(OCC2CC2)=C1c1ccc(S(C)(=O)=O)cc1 [firocoxib]
result.units: %
cell viability: 96.4
--
molecule: CCNC(=O)[C@H]1O[C@@H](n2cnc3c(N)nc(NCCc4ccc(CCC(=O)O)cc4)nc32)[C@H](O)[C@@H]1O
result.units: %
cell viability: 97.9
--
molecule: CSc1nc(NC2CCCC2)c([N+](=O)[O-])c(NC2CCCC2)n1
result.units: %
cell viability: 96.4
--
molecule: Cc1nc2c(OCc3ccccc3)cccn2c1CC#N
result.units: %
cell viability: 95.1
--
molecule: Cc1ccc(/C=C2\CNC/C(=C\c3ccc(C)cc3)C2=O)cc1
result.units: %
cell viability: 103
--
molecule: CC(=O)OCC(=O)[C@@]1(O)CC[C@H]2[C@@H]3CCC4=CC(=O)C=C[C@]4(C)[C@@]3(F)[C@@H](O)C[C@@]21C [isoflupredone-acetate]
result.units: %
cell viability: 94.5
--
molecule: CCCCCCCCCCCCCCCCCCCCCCO [docosanol]
result.units: %
cell viability: 88.4

---

Test system: HepG2
Assay: cell viability relative to DMSO; higher = less toxic
Conditions: 72 h; 10000 nM
measurement.type: cell viability

structure.string: c1nc2c(NC3CCCCC3)nc(Nc3ccc(N4CCOCC4)cc3)nc2[nH]1
val: 27.6%
//
structure.string: Oc1ccc([C@H]2COc3cc(O)ccc3C2)cc1
val: 97.3%
//
structure.string: COc1cc2cc(c1Cl)N(C)C(=O)C[C@H](OC(=O)C(C)C)[C@]1(C)O[C@@H]1[C@H](C)[C@@H]1C[C@@](O)(NC(=O)O1)[C@H](OC)/C=C/C=C(\C)C2
val: 30.9%
//
structure.string: CC(C)=CCC[C@](C)(O)[C@@H]1CC=C(C)CC1
val: 106%

---

As shown below, each of these compounds has a reported relative viability EC50 value.
System: Caco-2
Assay: relative viability EC50 (midpoint between 100% and the lowest measured viability); higher = less toxic
Conditions: 72 h

compound: OCC(Br)(Br)Br
relative viability EC50: > 10 µM

compound: COc1ccc(S(=O)(=O)N2CCC[C@H]2C(=O)Nc2cc(C)cc(C)c2)cc1
relative viability EC50: > 10 µM

compound: CCOC(=O)c1c(O)nc2cccc3c2c1-c1ccccc1C3=O
relative viability EC50: > 10 µM

compound: O=C(O)c1cc2ccccc2s1
relative viability EC50: > 10 µM

compound: CCOC(=O)C1=C(N)Oc2ccc(Br)cc2C1C(C#N)C(=O)OCC (centres undefined)
relative viability EC50: > 10 µM

compound: CC[C@]1(O)C[C@@H]2CN(CCc3c([nH]c4ccccc34)[C@@](C(=O)OC)(c3cc4c(cc3OC)N(C)[C@H]3[C@@](O)(C(=O)OC)[C@H](OC(C)=O)[C@]5(CC)C=CCN6CC[C@]43[C@@H]65)C2)C1 [Vinblastine (sulfate)]
relative viability EC50: 0.0105 µM

compound: CCCCCCCCCCCCCCCC(=O)C(F)(F)F
relative viability EC50: > 10 µM

compound: CCOc1ccccc1N/N=C1/C(=O)N(c2nc(-c3ccccc3)cs2)N=C1C
relative viability EC50: > 10 µM

compound: C=CC(=O)Nc1cccc(Oc2nc(Nc3ccc(N4CCN(C)CC4)cc3)ncc2Cl)c1
relative viability EC50: 1.56 µM

compound: N[C@@H]1CCN(c2cccnc2)C1
relative viability EC50: > 10 µM

compound: CCCCCCCCCCCCCCC[C@@H](O)[C@@H](N)CO
relative viability EC50: 2.87 µM

compound: Cc1ccc(NC(=O)C2(c3ccc4c(c3)OC(F)(F)O4)CC2)nc1-c1cccc(C(=O)O)c1
relative viability EC50: > 10 µM

compound: Nc1ncnc2c1ncn2[C@@H]1O[C@H](CO)[C@@H](O)[C@H]1O
relative viability EC50: > 10 µM

compound: NCC(=O)N[C@@H](CCC(N)=O)C(=O)O
relative viability EC50: > 10 µM

compound: Cc1nnsc1C(=O)Nc1ccc(-n2nc(C(F)(F)F)cc2C(F)(F)F)cc1
relative viability EC50: > 10 µM

compound: O=C(O)CNC(=O)c1ccccc1I
relative viability EC50: > 10 µM

compound: O=C(C(c1ccccc1)c1ccccc1)N1CCN(CC(O)COc2cccc3ncccc23)CC1 (centres undefined)
relative viability EC50: > 10 µM

compound: OCCCNc1ccccc1
relative viability EC50: > 10 µM

compound: Oc1ccc(-c2c(-c3ccccc3)nn3c(C(F)(F)F)cc(C(F)(F)F)nc23)cc1
relative viability EC50: > 10 µM
